// data source = patent US20200361992A1

Molecular target: T1, human ferroportin (SLC40A1) fused in frame with the GFP protein, stably expressed in HEK293 cells (human, UniProt Q9NP59 1-571)
T1 sequence (looked up): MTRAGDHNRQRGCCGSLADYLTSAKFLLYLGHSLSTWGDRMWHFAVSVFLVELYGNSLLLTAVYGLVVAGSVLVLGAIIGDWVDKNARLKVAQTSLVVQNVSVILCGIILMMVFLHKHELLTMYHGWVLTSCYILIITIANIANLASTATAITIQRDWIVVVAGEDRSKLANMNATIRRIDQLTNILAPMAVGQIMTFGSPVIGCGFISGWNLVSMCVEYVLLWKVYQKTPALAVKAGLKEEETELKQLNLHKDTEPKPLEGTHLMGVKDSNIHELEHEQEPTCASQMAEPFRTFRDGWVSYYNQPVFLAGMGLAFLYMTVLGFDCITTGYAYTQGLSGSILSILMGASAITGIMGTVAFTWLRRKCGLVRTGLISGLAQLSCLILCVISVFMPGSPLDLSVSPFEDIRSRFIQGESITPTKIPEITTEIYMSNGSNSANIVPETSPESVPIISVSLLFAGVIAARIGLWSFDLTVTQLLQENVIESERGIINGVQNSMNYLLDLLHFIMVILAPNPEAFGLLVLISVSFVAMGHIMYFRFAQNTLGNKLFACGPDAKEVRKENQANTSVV
Assay: cell-based or functional assay
Starred links: 1 amine or outer side, 2 acyl side, 3 side chain; linkers in the order of their positions; H or OH if unused. Positions of bridges follow the written chain, without caps; N, C: chain ends. Non-standard residues stand in square brackets, D forms with d. Groups on a side chain read outwards from the residue. *: point of attachment. γGlu = O=C(O)[C@H](CCC(=O)[*:2])N[*:1]; Palmitoyl = CCCCCCCCCCCCCCCC(=O)*; αMeF = C[C@](N)(Cc1ccccc1)C(=O)O; β3hF = N[C@H](CC(=O)O)Cc1ccccc1; Isovaleryl = CC(C)CC(=O)*
Reported values of FPN IC50 for individual entries
Give just the number in nM; leave the unit off.

- Isovaleryl-DTHFPCIK([γGlu-Palmitoyl])[αMeF]C-NH2 (disulfide 6-10; SMILES CCCCCCCCCCCCCCCC(=O)N[C@@H](CCC(=O)NCCCC[C@@H]1NC(=O)[C@H]([C@@H](C)CC)NC(=O)[C@@H](NC(=O)[C@@H]2CCCN2C(=O)[C@H](Cc2ccccc2)NC(=O)[C@H](Cc2c[nH]cn2)NC(=O)[C@@H](NC(=O)[C@H](CC(=O)O)NC(=O)CC(C)C)[C@@H](C)O)CSSC[C@@H](C(N)=O)NC(=O)[C@](C)(Cc2ccccc2)NC1=O)C(=O)O) [Compd ID 215]: 96

Quick note, FPN IC50 for Isovaleryl-DTHFPCIK([γGlu-Palmitoyl])[β3hF]C-NH2 (disulfide 6-10; SMILES CCCCCCCCCCCCCCCC(=O)N[C@@H](CCC(=O)NCCCC[C@@H]1NC(=O)[C@H]([C@@H](C)CC)NC(=O)[C@@H](NC(=O)[C@@H]2CCCN2C(=O)[C@H](Cc2ccccc2)NC(=O)[C@H](Cc2c[nH]cn2)NC(=O)[C@@H](NC(=O)[C@H](CC(=O)O)NC(=O)CC(C)C)[C@@H](C)O)CSSC[C@@H](C(N)=O)NC(=O)C[C@H](Cc2ccccc2)NC1=O)C(=O)O) [Compd ID 214] landed at 36
